- System: MET
- PROTOCOL_SUMMARY: MET biochemical kinase assay
- Parameters: species or system human; concentration or dose not given beside the values
Hi there, I'd appreciate the recorded Met Kinase % Inhibition for every entry that follows.
Numbers only, in %.

Dear colleague, could you send me Met Kinase % Inhibition for each of the items below? Thanks.
1. O=C1Nc2ccc(CCCl)cc2C1=Cc1ccc(N2CCCC2)cc1
2. Cc1cc2occ(C=C3C(=O)Nc4ccc(CCCl)cc43)c(=O)c2cc1C

[26.7, 33.7]

Please look at the items below and tell me Met Kinase % Inhibition for each one, in order.
1. O=C1Nc2ccc(S(=O)(=O)Nc3ccc(C(F)(F)F)cc3)cc2C1=Cc1cc(Br)cc(Br)c1O
2. O=C1Nc2ccc(S(=O)(=O)N3CCOCC3)cc2C1=Cc1cccs1
3. CNS(=O)(=O)c1ccc2c(c1)C(=Cc1csc([N+](=O)[O-])c1)C(=O)N2
4. COc1cccc(C=C2C(=O)Nc3c(Br)cc(Br)cc32)c1O
5. O=C1Nc2c(Br)cc(Br)cc2C1=Cc1c[nH]c(=O)[nH]c1=O
6. CCN(CC)c1ccc(C=C2C(=O)Nc3ccc(I)cc32)cc1
7. O=C1Nc2ccc(S(=O)(=O)N3CCOCC3)cc2C1=Cc1cc(O)c2c(c1O)CCCC2

1: 100.8; 2: 42.8; 3: 52.2; 4: 76.5; 5: 59.9; 6: 90.5; 7: 96.1

---

- TARGET_OF_ASSAY: PDGF-R (Homo sapiens)
- Sequence (P09619 33-1106, species assumed): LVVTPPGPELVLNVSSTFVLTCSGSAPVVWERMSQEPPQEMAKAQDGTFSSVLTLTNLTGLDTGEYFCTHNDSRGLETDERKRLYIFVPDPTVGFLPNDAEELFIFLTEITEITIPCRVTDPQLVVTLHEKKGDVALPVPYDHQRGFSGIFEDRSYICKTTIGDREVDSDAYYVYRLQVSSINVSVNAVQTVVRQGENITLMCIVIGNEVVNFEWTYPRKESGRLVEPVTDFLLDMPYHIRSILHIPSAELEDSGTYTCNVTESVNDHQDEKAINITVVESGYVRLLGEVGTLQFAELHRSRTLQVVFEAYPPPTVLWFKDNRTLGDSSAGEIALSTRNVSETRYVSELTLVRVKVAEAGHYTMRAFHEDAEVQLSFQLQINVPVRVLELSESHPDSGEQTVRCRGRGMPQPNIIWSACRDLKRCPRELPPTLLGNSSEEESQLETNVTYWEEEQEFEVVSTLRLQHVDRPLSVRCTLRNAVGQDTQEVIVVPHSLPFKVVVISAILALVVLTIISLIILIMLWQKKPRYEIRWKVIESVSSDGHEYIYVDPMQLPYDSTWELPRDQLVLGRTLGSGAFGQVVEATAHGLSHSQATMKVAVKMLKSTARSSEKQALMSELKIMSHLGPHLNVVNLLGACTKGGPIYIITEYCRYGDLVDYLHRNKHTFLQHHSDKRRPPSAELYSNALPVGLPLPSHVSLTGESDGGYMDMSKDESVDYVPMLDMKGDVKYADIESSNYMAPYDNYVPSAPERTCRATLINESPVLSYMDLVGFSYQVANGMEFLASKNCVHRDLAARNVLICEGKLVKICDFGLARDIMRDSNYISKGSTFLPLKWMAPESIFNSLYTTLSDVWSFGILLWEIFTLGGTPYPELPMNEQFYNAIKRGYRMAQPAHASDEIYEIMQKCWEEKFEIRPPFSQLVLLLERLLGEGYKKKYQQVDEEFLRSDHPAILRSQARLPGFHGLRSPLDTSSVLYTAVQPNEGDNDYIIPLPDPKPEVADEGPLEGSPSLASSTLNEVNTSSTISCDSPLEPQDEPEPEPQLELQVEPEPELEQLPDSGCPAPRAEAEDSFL
- PROTOCOL_SUMMARY: PDGF-R ELISA
- Type: cell-based
I'd appreciate it if you could supply PDGF Kinase %Inhibition values for the items below.
Give bare numbers, in %.

[
  {
    "MOLECULE": "CC(C)(C)c1cc(C=C2C(=O)Nc3ccc(S(=O)(=O)Nc4ccc(C(F)(F)F)cc4)cc32)cc(Cl)c1O [10722/E08]",
    "TARGET_OF_ASSAY": "PDGF-R (Homo sapiens)",
    "PDGF Kinase %Inhibition [%]": 38.7
  },
  {
    "MOLECULE": "O=C1Nc2ccc(S(=O)(=O)Nc3ccc(C(F)(F)F)cc3)cc2C1=Cc1coc2ccc(Cl)cc2c1=O [10730/E06]",
    "TARGET_OF_ASSAY": "PDGF-R (Homo sapiens)",
    "PDGF Kinase %Inhibition [%]": 26.0
  },
  {
    "MOLECULE": "Cc1c(Br)ccc2c1C(=Cc1coc3ccccc3c1=O)C(=O)N2 [10727/C07]",
    "TARGET_OF_ASSAY": "PDGF-R (Homo sapiens)",
    "PDGF Kinase %Inhibition [%]": 13.0
  }
]

Now for another entry.
O=C1Nc2ccc(S(=O)(=O)Nc3ccc(C(F)(F)F)cc3)cc2C1=Cc1cc(O)c(O)c(Br)c1 [10723/E04] has a reported PDGF Kinase %Inhibition of 36.0

---

- TARGET_OF_ASSAY: EGFR (Homo sapiens)
- Construct: Add 7 ug A431 cell lysate per well (EGFR source); endogenous in cells; host or cells: A431
- Sequence (P00533 25-1210): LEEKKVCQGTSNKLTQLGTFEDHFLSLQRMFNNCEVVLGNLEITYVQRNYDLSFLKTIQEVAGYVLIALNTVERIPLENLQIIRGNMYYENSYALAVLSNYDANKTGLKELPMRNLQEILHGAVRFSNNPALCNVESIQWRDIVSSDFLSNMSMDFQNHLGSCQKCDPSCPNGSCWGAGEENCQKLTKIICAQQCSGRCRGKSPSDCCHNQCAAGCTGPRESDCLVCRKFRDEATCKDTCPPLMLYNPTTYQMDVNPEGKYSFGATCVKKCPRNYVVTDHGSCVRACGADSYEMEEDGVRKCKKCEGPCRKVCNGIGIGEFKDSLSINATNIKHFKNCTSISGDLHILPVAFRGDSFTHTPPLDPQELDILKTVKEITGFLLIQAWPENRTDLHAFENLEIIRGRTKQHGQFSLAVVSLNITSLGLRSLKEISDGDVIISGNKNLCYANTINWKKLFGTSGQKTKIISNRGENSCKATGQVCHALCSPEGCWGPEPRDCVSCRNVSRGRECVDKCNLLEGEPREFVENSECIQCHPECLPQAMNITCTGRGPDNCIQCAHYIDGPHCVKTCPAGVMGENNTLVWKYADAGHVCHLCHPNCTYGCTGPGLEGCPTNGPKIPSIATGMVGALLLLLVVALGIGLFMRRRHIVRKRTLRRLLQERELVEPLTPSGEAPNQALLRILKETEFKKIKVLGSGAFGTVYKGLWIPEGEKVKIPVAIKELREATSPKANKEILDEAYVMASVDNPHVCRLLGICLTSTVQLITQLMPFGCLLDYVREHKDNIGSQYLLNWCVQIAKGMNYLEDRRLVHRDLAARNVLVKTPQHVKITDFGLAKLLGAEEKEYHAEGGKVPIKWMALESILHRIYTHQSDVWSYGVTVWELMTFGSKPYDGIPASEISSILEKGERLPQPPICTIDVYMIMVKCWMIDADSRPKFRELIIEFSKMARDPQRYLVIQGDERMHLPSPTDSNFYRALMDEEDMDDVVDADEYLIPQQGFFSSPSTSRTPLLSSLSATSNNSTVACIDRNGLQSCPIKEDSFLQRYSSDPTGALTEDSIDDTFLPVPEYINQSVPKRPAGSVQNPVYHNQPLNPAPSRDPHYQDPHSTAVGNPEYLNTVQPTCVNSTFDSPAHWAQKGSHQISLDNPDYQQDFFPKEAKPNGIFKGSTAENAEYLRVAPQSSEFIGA
- PROTOCOL_SUMMARY: EGFR ELISA assay (in vitro kinase activity, EGFR captured from A431 cell lysate)
- Assay type: biochemical
- Design: concentration or dose not given beside the values
VALUE_KIND: Biochem EGFR %Inhibition (%)
Numbers only, in %.

Record excerpt, results attached:
[
  {
    "COMPOUND": "COc1ccc(C=C2C(=O)Nc3c(Br)cc(Br)cc32)c(O)c1 [10723/A09]",
    "TARGET_OF_ASSAY": "EGFR (Homo sapiens)",
    "VALUE_OBSERVED": -4.5
  },
  {
    "COMPOUND": "CNS(=O)(=O)c1ccc2c(c1)C(=Cc1c[nH]cn1)C(=O)N2 [10725/D11]",
    "TARGET_OF_ASSAY": "EGFR (Homo sapiens)",
    "VALUE_OBSERVED": -12.5
  },
  {
    "COMPOUND": "COc1cccc(OC)c1C=C1C(=O)Nc2ccc(S(=O)(=O)Nc3ccc(C(F)(F)F)cc3)cc21 [10728/E03]",
    "TARGET_OF_ASSAY": "EGFR (Homo sapiens)",
    "VALUE_OBSERVED": 9.5
  }
]

Batch lookup, Biochem EGFR %Inhibition per entry.
1. CNS(=O)(=O)c1ccc2c(c1)C(=Cc1cc(C)c(O)c(C(C)(C)C)c1)C(=O)N2 [10726/D04]
2. CCc1cc(CC)c(C=C2C(=O)Nc3ccc(S(=O)(=O)Nc4ccc(C(F)(F)F)cc4)cc32)[nH]1 [10727/E03]

[-20.1, 35.5]

Each compound below has a recorded value; state its Biochem EGFR %Inhibition.
1. CNS(=O)(=O)c1ccc2c(c1)C(=Cc1cc(C(C)(C)C)c(OC)c(C(C)(C)C)c1)C(=O)N2 [10733/D04]
2. O=C1Nc2ccc(CCCl)cc2C1=Cc1cc2c([nH]1)CCCC2 [10721/G05]
3. Cc1ccc2occ(C=C3C(=O)Nc4ccc(CCCl)cc43)c(=O)c2c1 [10731/G06]
4. COC(=O)Cc1c(Cl)[nH]c(C=C2C(=O)Nc3ccc(S(=O)(=O)Nc4ccc(C(F)(F)F)cc4)cc32)c1C(=O)OC [10725/E09]
5. CCn1c2ccccc2c2cc(C=C3C(=O)Nc4ccc(S(=O)(=O)NC)cc43)ccc21 [10731/D02]

1: 19.9; 2: 7.7; 3: 2.3; 4: 31.4; 5: 4.9

Report Biochem EGFR %Inhibition for each item below.
1. CNS(=O)(=O)c1ccc2c(c1)C(=Cc1cc(Br)c(OCc3ccccc3)c(C(C)(C)C)c1)C(=O)N2 [10732/D08]
2. O=C1Nc2ccc(I)cc2C1=Cc1cccc(Br)c1 [10723/B10]
3. COc1ccc(C=C2C(=O)Nc3ccc(S(=O)(=O)Nc4ccc(C(F)(F)F)cc4)cc32)c(OC)c1 [10719/E04]
4. CNS(=O)(=O)c1ccc2c(c1)C(=Cc1cc(C(C)C)c(O)c(C(C)C)c1)C(=O)N2 [10724/D06]
5. O=C1Nc2ccc(CCCl)cc2C1=Cc1ccc(Br)o1 [10726/G05]
6. CCOC(=O)c1[nH]c(C=C2C(=O)Nc3ccc(S(=O)(=O)NC)cc32)c(C(=O)OC)c1C [10726/D03]
7. CNS(=O)(=O)c1ccc2c(c1)C(=Cc1cc(C)c(OCc3ccccc3)c(C)c1)C(=O)N2 [10733/D07]

1. -20.6
2. 1.8
3. -7.4
4. -12.4
5. 5.1
6. -5.4
7. 37.4
